Please respond with reported pKd for every item in the list.
- target.of.assay: T1, hBRM-B BRD (human BRM bromodomain, short splice isoform, residues 1379-1399 and 1418-1508) (human, UniProt P51531 1379-1399; P51531 1418-1508, 15N-labelled)
- T1 chain: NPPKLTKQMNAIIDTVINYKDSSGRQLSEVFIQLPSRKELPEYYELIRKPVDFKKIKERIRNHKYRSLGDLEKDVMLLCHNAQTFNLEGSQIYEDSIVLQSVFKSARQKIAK
- experimental.details: NMR
No end group written: not given here.
Schema: pKd number; meaning minus log10 of the concentration expressed in molar units.

Data request: Given the entry KQLATK(Ac)AARKS [H3(18-28)K23ac histone peptide] , report its measured pKd.
Data returned: 2.46

Data request: Param item = AKRHRK(Ac)VLRDN [H4(15-25)K20ac histone peptide] ; retrieve measured pKd.
Data returned: 2.62
